- SYSTEM_NAME: Human His-tagged RBP4 (residues 19-201), soluble (human, UniProt P02753 19-201)
- MEASUREMENT_DESCRIPTION: yeast surface display, flow cytometry: soluble His-tagged RBP4 titrated on yeast displaying the binder, anti-penta-His detection, with 5 µM A1120

BINDER	EC50 (read off the curve)
RS2, rcSso7d-based lipocalin-fold binding interaction partner, displayed on the surface of yeast (designed binder, not shown: Yeast display carrier of pCTCON2 (Aga2p, HA tag, linker, C-terminal c-myc tag)) ATVKLTYQGEEKQVDISKIKRVARYGQGIYFDYGEGGGAWGYGSVSEKDAPKELLQMLEKQ	~3 nM
RS1, rcSso7d-based lipocalin-fold binding interaction partner, displayed on the surface of yeast (designed binder, not shown: Yeast display carrier of pCTCON2 (Aga2p, HA tag, linker, C-terminal c-myc tag)) ATVKFTYQGEEEQVDISKIKKVARYGQNIYFSYDEGGGAWDYGGVSEKDAPKELLQMLEKQ	1 to 2 nM
RS3, rcSso7d-based lipocalin-fold binding interaction partner, displayed on the surface of yeast (designed binder, not shown: Yeast display carrier of pCTCON2 (Aga2p, HA tag, linker, C-terminal c-myc tag)) ATVKLTYQGEEKQVDISKIKRVARYGQNIYFSYDEGGGAYDYGAVSEKDAPKELLQMLEKQ	~10 nM
RF2, FN3-based lipocalin-fold binding interaction partner, displayed on the surface of yeast (designed binder, not shown: Yeast-display carrier of the pCTCON2 construct (Aga2p anchor, HA tag, linker, c-myc tag)) VSDVPRDLEVVAATPTSLLISWYYPNASHAGYYRITYGETGGNSPVQEFTVPFSIRYTIATISGLKPGVDYTITVYAVTDYAYYYRLSEPISINYRTEIDKPSQ	~40 nM
